Biological target: UniProt P22455
Sequence (P22455 22-802): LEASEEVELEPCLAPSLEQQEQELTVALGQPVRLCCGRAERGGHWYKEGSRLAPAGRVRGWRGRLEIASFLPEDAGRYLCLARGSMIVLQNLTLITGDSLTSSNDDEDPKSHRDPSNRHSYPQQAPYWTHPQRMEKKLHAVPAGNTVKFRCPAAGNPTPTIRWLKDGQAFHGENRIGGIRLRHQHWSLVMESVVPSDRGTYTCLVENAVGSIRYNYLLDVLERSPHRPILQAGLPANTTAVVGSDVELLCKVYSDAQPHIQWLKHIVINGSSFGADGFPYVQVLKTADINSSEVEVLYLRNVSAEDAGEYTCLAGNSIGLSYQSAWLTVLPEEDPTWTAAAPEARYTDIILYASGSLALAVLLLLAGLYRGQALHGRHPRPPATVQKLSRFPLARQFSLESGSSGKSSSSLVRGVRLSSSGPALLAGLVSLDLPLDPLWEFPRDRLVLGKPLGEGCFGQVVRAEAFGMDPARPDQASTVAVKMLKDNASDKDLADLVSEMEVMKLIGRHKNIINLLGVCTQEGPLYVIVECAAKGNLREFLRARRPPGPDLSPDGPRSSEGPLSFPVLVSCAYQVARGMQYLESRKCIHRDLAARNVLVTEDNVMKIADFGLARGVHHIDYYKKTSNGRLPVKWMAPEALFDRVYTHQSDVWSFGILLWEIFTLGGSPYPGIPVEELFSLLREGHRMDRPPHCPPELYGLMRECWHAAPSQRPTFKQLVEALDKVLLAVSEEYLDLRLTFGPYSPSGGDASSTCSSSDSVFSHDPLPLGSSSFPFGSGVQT
Test: HTRF KinEASE-TK kinase assay, FGFR4
Type: biochemical
Settings: read-out: % FGFR4 Remaining activity vs DMSO (10 μM, 3 h)
Assignment: determine reported remaining activity at 10 µM for the given compounds.

Value of remaining activity at 10 µM reported for the compound C[S+]([O-])c1c(F)c(F)c(F)c(F)c1C(=O)N1CCC[C@@H](n2nc(-c3ccc(Oc4ccccc4)cc3)c3c(N)ncnc32)C1 (stereo partly drawn) is < 50%

Just so you know, measured remaining activity at 10 µM for CN(CCn1nc(-c2ccc(Oc3ccccc3)cc2)c2c(N)ncnc21)C(=O)c1c(F)c(F)c(F)c(F)c1S(N)(=O)=O came out at < 50%

// recorded remaining activity at 10 µM for COCCOc1ccc(Nc2ncc(F)c(Nc3cccc(NS(=O)(=O)c4c(F)c(F)c(F)c(F)c4C(F)F)c3)n2)cc1 : < 50%

Looking up CN(CCn1nc(-c2ccc(Oc3ccccc3)cc2)c2c(N)ncnc21)c1c(F)c(F)c(F)c(F)c1S(C)(=O)=O , I found its remaining activity at 10 µM recorded as > 90%

Item: CS(=O)(=O)c1c(F)c(F)c(F)c(F)c1C(=O)NCCNc1ncnc2[nH]ccc12 | remaining activity at 10 µM: < 50%

Lookup result for COCCOc1ccc(Nc2ncc(F)c(Nc3cccc(NS(=O)(=O)c4c(F)c(F)c(F)c(F)c4OC(F)F)c3)n2)cc1 ; measured remaining activity at 10 µM: < 50%

Measured remaining activity at 10 µM, CN(CCn1nc(-c2ccc(Oc3ccccc3)cc2)c2c(N)ncnc21)C(=O)c1c(F)c(F)c(F)c(F)c1S(C)(=O)=O : < 50%

The recorded remaining activity at 10 µM for CS(=O)(=O)c1c(F)c(F)c(F)c(F)c1Nc1cc2c(Nc3ccc(F)c(Cl)c3)ncnc2cc1O[C@H]1CCOC1 is 50 to 90%

Record summary for Nc1ncnc2c1c(-c1ccc(Oc3ccccc3)cc1)nn2CCNS(=O)(=O)c1c(F)c(F)c(F)c(F)c1C(F)F : reported remaining activity at 10 µM = < 50%
